Recorded values, source patent US20240287042A1.

# test-system: human wild-type (WT)-pendrin (Homo sapiens)
# Construct: expressed in transfected cells
# experiment-notes: Pendrin Cl−/I− exchange inhibitory activity, YFP fluorescence in CHO-K1 cells
# Type: cell-based
# condition-context: CHO-K1; compound concentration 10 μM
Listed next: entries and their corresponding inhibition at 10 µM.

Example compounds with recorded inhibition at 10 µM:
compound="Cc1cc(C)c2[nH]c(C(=O)O)c(CC(=O)N3CCN(c4ccc(C(C)(C)C)cc4)CC3)c2c1 [YPI-A4945]" test_system="human wild-type (WT)-pendrin (Homo sapiens)" endpoint_result="< 20%"
compound="Cc1cccc(C)c1N1CCN(C(=O)Cc2c(C(=O)O)[nH]c3ccc(Cl)cc23)CC1 [YPI-A4783]" test_system="human wild-type (WT)-pendrin (Homo sapiens)" endpoint_result=100%
compound="Cc1ccc(N2CCN(C(=O)Cc3c(C(=O)O)[nH]c4ccc(Cl)cc34)CC2)c(C)c1 [YPI-A4801]" test_system="human wild-type (WT)-pendrin (Homo sapiens)" endpoint_result=95.4%
compound="Cc1cccc(N2CCN(C(=O)Cc3c(C(=O)O)[nH]c4ccc(Cl)cc34)CC2)c1 [YPI-A4848]" test_system="human wild-type (WT)-pendrin (Homo sapiens)" endpoint_result="< 20%"
compound="O=C(O)c1[nH]c2ccc(Cl)cc2c1CC(=O)N1CCN(c2ccccc2)CC1 [YPI-A4881]" test_system="human wild-type (WT)-pendrin (Homo sapiens)" endpoint_result="< 20%"
compound="O=C(O)c1[nH]c2ccc(Cl)cc2c1CC(=O)N1CCN(c2ccc(-c3ccccc3)cc2)CC1 [YPI-A4966]" test_system="human wild-type (WT)-pendrin (Homo sapiens)" endpoint_result="< 20%"

input: Fill in: inhibition at 10 µM of CC(C)(C)c1ccc(N2CCN(C(=O)Cc3c(C(=O)O)[nH]c4ccc(F)cc34)CC2)cc1 [YPI-A4965] is ___
output: < 20%

input: Fill in: inhibition at 10 µM of Cc1cccc(C)c1N1CCN(C(=O)Cc2c(C(=O)O)[nH]c3ccc(F)cc23)CC1 [YPI-A4964] is ___
output: 51.4%

----------
# test-system: human wild-type (WT)-pendrin (Homo sapiens)
# Construct: expressed in transfected cells
# Sequence (O43511 1-780): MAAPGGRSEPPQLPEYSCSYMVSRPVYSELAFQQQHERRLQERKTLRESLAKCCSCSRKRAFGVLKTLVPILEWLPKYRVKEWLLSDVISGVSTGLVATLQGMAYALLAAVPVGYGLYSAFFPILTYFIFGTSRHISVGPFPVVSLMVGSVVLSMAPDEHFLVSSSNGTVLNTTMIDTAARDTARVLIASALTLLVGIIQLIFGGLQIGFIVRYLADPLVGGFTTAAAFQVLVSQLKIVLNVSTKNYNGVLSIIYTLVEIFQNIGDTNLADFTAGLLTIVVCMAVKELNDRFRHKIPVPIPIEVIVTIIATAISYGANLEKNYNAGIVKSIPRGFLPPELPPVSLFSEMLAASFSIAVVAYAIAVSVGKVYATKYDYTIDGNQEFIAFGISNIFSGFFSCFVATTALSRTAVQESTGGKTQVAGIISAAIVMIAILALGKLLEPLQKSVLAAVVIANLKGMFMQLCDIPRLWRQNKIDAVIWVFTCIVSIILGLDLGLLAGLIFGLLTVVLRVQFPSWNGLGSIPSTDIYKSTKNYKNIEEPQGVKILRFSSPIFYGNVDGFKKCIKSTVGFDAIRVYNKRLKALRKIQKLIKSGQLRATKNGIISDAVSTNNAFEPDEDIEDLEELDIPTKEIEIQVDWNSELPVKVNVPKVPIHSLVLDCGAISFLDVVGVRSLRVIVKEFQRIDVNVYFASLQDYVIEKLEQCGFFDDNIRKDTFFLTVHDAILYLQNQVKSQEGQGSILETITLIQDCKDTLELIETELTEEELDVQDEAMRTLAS
# experiment-notes: Pendrin Cl−/I− exchange inhibitory activity, YFP fluorescence in CHO-K1 cells
# Type: cell-based
# condition-context: CHO-K1; compound concentration 30 μM
Listed next: entries and their corresponding inhibition at 30 µM.

Example compounds with recorded inhibition at 30 µM:
structure_smiles=Cc1ccc(N2CCN(C(=O)Cc3c(C(=O)O)[nH]c4ccc(Cl)cc34)CC2)c(C)c1 readout_label="inhibition at 30 µM" endpoint_result=96.7%
structure_smiles=COc1cccc(N2CCN(C(=O)Cc3c(C(=O)O)[nH]c4ccc(Cl)cc34)CC2)c1 readout_label="inhibition at 30 µM" endpoint_result="< 20%"
structure_smiles=O=C(O)c1[nH]c2ccc(Cl)cc2c1CC(=O)N1CCN(c2ccccc2F)CC1 readout_label="inhibition at 30 µM" endpoint_result="< 20%"

Okay, now this compound:
input: Test system human wild-type (WT)-pendrin (Homo sapiens); read-out inhibition at 30 µM; what value for "O=C(O)c1[nH]c2ccc(Cl)cc2c1CC(=O)N1CCN(c2ccccc2)CC1" ?
output: < 20%

----------
# test-system: human wild-type (WT)-pendrin (Homo sapiens, UniProt O43511)
# Construct: expressed in transfected cells
# experiment-notes: Pendrin Cl−/I− exchange inhibitory activity, YFP fluorescence in CHO-K1 cells
# Format: cell-based
# condition-context: CHO-K1; compound concentration 30 μM
readout-label: inhibition at 30 µM (%)

structure_smiles=Cc1cccc(C)c1N1CCN(C(=O)Cc2c(C(=O)O)[nH]c3ccc(Cl)cc23)CC1 endpoint_result=100
structure_smiles=Cc1ccccc1N1CCN(C(=O)Cc2c(C(=O)O)[nH]c3ccc(Cl)cc23)CC1 endpoint_result=91.5
structure_smiles=Cc1cccc(Cl)c1N1CCN(C(=O)Cc2c(C(=O)O)[nH]c3ccc(Cl)cc23)CC1 endpoint_result=98.1

----------
# test-system: human wild-type (WT)-pendrin (Homo sapiens, UniProt O43511)
# Construct: expressed in transfected cells
# Sequence (O43511 1-780): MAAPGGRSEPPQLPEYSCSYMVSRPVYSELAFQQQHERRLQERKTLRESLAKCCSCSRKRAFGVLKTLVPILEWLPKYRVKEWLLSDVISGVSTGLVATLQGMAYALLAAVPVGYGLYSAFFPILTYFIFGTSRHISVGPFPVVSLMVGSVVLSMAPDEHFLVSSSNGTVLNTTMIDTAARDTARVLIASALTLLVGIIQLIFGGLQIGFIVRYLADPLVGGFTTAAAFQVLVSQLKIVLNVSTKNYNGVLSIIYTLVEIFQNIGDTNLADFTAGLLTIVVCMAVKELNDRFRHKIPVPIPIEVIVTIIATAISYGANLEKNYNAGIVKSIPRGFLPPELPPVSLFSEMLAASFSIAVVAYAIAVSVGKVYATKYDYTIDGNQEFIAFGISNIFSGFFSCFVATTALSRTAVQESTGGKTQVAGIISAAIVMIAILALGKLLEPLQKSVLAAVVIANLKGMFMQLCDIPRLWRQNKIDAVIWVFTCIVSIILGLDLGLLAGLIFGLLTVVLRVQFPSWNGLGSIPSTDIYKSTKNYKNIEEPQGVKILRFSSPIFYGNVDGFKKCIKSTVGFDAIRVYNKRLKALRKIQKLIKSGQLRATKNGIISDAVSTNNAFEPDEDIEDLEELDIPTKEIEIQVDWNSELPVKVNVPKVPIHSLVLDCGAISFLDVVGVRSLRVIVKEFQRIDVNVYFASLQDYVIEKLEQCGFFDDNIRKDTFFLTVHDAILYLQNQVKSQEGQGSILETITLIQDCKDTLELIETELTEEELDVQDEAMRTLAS
# experiment-notes: Pendrin Cl−/I− exchange inhibitory activity, YFP fluorescence in CHO-K1 cells
# Type: cell-based
# condition-context: CHO-K1; compound concentration 100 μM
readout-label: inhibition at 100 µM (%)

compound="Cc1cccc(N2CCN(C(=O)Cc3c(C(=O)O)[nH]c4ccc(Cl)cc34)CC2)c1C [YPI-A4799]" test_system="human wild-type (WT)-pendrin (Homo sapiens, UniProt O43511)" readout_label="inhibition at 100 µM" endpoint_result=97.1
compound="O=C(O)c1[nH]c2ccc(Cl)cc2c1CC(=O)N1CCN(c2ccc(C(F)(F)F)cc2)CC1 [YPI-A4779]" test_system="human wild-type (WT)-pendrin (Homo sapiens, UniProt O43511)" readout_label="inhibition at 100 µM" endpoint_result=95.3
compound="COc1cccc(N2CCN(C(=O)Cc3c(C(=O)O)[nH]c4ccc(Cl)cc34)CC2)c1 [YPI-A4877]" test_system="human wild-type (WT)-pendrin (Homo sapiens, UniProt O43511)" readout_label="inhibition at 100 µM" endpoint_result=67.5
compound="Cc1c(Cl)cccc1N1CCN(C(=O)Cc2c(C(=O)O)[nH]c3ccc(Cl)cc23)CC1 [YPI-A4918]" test_system="human wild-type (WT)-pendrin (Homo sapiens, UniProt O43511)" readout_label="inhibition at 100 µM" endpoint_result=95.6
compound="O=C(O)c1[nH]c2ccc(Cl)cc2c1CC(=O)N1CCN(c2cc(Cl)c(Cl)c(Cl)c2)CC1 [YPI-A4916]" test_system="human wild-type (WT)-pendrin (Homo sapiens, UniProt O43511)" readout_label="inhibition at 100 µM" endpoint_result=91.4
